Target: T1, Human MMP-9 catalytic domain (BIOMOL, SE-244) (human, UniProt P14780 107-457, limits assumed)
T1 construct: domain: catalytic domain; also called Cat-huMMP-9; cat-huMMP-9
T1 sequence (P14780 107-457 limits assumed): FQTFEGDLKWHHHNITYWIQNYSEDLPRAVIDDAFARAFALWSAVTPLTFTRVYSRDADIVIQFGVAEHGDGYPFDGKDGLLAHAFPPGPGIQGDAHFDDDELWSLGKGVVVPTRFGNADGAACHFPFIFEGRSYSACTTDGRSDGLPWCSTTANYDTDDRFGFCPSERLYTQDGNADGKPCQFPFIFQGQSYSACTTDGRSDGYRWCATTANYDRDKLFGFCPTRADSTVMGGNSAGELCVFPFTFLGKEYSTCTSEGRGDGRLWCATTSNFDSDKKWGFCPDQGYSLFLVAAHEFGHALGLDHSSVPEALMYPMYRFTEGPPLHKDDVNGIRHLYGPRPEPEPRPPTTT
Test: Ki,app, enzyme inhibition assay (fluorogenic peptide substrate), medium-scale sFab
Entries annotated with measured pKi
Units for pKi: none; it is -log10 of a concentration expressed in mol/L.

binder="M0273-G07 (Fab, V domains shown, sFab; variable domains only; also called M273-G07) VH: EVQLLESGGGLVQPGGSLRLSCAASGFTFSHYDMWWVRQAPGKGLEWVSVIYPSGGPTYYADSVKGRFTISRDNSKNTLYLQMNSLRAEDTAVYYCAKDRAYGDYVGWNGFDYWGQGTLVTVSS VL: DIQMTQSPATLSLSPGERATLSCRASQSISSFLAWYQQKPGQAPRLLIYDASYRATGIPARFSGSGSGTDFTLTISSLEPEDYAVYYCQQRGNWPITFGQGTRLEIK" endpoint_name=pKi value_reported=9.22

Consider the record given below.
Challenge: Reported pKi for M0276-F11 (Fab, V domains shown, sFab; variable domains only; also called M276-F11) VH: EVQLLESGGGLVQPGGSLRLSCAASGFTFSWYDMWWVRQAPGKGLEWVSVIYSSGGPTFYADSVKGRFTISRDNSKNTLYLQMNSLRAEDTAVYYCAKDRAYGDYVGWNGFDYWGQGTLVTVSS VL: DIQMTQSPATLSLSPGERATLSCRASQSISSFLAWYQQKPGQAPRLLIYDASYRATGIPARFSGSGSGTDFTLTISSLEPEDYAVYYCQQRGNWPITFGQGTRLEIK : what is it?
Response given: 9.40
